experiment: Cytotoxicity (MTS cell viability) in HIV-1 assay; conditions: human, CEM-SS cells
metric: viability at 10 micrograms per ml (%)
Response body: numeric value in %, unit text excluded.

For the compound C[C@@H](O)[C@@H]1NC(=O)[C@H](CCCCN)NC(=O)[C@@H](Cc2c[nH]c3ccccc23)NC(=O)[C@H](Cc2ccccc2)NC(=O)[C@@H](NC(=O)[C@H](N)Cc2ccccc2)CSSC[C@@H](C(=O)N[C@H](CO)[C@@H](C)O)NC1=O [Octreotide] , give its reported viability at 10 micrograms per ml.
100

---

assay: Cytotoxicity testing in MRC-5 cells (CellTiter 96); assay type: cell-based; settings: human, MRC-5 cells (embryonal lung fibroblasts); MRC-5 cells; 6 days incubation; read-out: % Cell viability
metric: viability at 144 h (%)
Response body: numeric value in %, unit text excluded.

For the molecule C[C@@H](O)[C@@H]1NC(=O)[C@H](CCCCN)NC(=O)[C@@H](Cc2c[nH]c3ccccc23)NC(=O)[C@H](Cc2ccccc2)NC(=O)[C@@H](NC(=O)[C@H](N)Cc2ccccc2)CSSC[C@@H](C(=O)N[C@H](CO)[C@@H](C)O)NC1=O [Octreotide] , give its reported viability at 144 h.
100

---

test: Cell viability (dye uptake) in HBV assay; format: cell-based; conditions: human, HepG2-2.2.15, peptide 10 micrograms per ml
metric: viability at 144 h, 10 micrograms per ml (%)
Response body: numeric value in %, unit text excluded.

For the compound C[C@@H](O)[C@@H]1NC(=O)[C@H](CCCCN)NC(=O)[C@@H](Cc2c[nH]c3ccccc23)NC(=O)[C@H](Cc2ccccc2)NC(=O)[C@@H](NC(=O)[C@H](N)Cc2ccccc2)CSSC[C@@H](C(=O)N[C@H](CO)[C@@H](C)O)NC1=O [Octreotide] , give its reported viability at 144 h, 10 micrograms per ml.
97.8
